B1: library; a variant is named by its letters at X, in order (parent)
chain: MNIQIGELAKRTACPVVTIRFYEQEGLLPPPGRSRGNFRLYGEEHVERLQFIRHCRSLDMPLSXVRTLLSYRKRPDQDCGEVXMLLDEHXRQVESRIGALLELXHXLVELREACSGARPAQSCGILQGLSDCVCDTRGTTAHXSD

Variants of: B1
ASSAY SUMMARY: sfGFP reporter fluorescence (15 h) (µM FITC); higher = higher leak
CONDITION PARAMETERS: library round: Round 3b; ligand: none
Label no (0) if sfGFP reporter fluorescence falls below 0.05; label yes (1) in every other case.

ALTERATION: KNATAT
GROUP LABEL: yes (1)
--
ALTERATION: KFIKER
GROUP LABEL: no (0)
--
ALTERATION: KIITER
GROUP LABEL: no (0)
--
ALTERATION: KIATAT
GROUP LABEL: yes (1)
--
ALTERATION: DFIVER
GROUP LABEL: no (0)
--
ALTERATION: DFAVAR
GROUP LABEL: no (0)
--
ALTERATION: KNAKAR
GROUP LABEL: yes (1)
--
ALTERATION: DIIVAT
GROUP LABEL: no (0)
--
ALTERATION: DIITAT
GROUP LABEL: no (0)
--
ALTERATION: DFITER
GROUP LABEL: no (0)
